- MEASUREMENT TARGET: Hsp90 in C. albicans (SC5314) lysate (Candida albicans, UniProt P46598)
- Construct: endogenous in cells; host or cells: C. albicans SC5314 whole-cell lysate
- Sequence (P46598 whole entry): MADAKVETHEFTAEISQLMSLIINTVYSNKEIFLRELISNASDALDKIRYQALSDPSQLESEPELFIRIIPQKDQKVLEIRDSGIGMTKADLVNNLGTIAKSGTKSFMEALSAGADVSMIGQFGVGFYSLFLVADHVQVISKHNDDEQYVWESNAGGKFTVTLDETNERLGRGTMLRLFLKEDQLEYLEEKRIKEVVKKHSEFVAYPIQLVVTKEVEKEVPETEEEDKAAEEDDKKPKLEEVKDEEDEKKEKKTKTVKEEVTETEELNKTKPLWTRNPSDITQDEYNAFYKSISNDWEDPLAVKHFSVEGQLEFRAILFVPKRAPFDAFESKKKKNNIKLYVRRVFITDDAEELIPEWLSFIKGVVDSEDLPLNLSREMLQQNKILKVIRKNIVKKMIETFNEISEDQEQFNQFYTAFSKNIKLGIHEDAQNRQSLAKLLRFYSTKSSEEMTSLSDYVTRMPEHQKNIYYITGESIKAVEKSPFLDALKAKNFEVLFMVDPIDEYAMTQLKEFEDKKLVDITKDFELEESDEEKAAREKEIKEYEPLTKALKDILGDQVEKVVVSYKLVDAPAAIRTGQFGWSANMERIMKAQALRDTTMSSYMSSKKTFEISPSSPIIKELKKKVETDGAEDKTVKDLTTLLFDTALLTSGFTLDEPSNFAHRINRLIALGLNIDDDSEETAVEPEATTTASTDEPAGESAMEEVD
- ASSAY EXPLANATION: biochemical
- Set-up: species or system C. albicans SC5314 or HEPG2 lysate; Fluorescence polarization competition, displacement of Cy3B-geldanamycin probe from Hsp90 in whole-cell lysate
Assignment: determine reported EC50 for the given molecules.

# lookup: EC50 of CCON=C1/C=C/C=C\[C@H]2O[C@H]2C[C@@H](C)OC(=O)c2c(O)cc(O)c(Cl)c2C1 [compound 8]
5 nM

// query: C[C@@H]1C[C@@H]2O[C@@H]2/C=C\C=C\C(=NOCc2cccc(F)c2)Cc2c(Cl)c(O)cc(O)c2C(=O)O1 [compound 6]
417 nM

What about this molecule? Cc1ccc(CON=C2/C=C/C=C\[C@H]3O[C@H]3C[C@@H](C)OC(=O)c3c(O)cc(O)c(Cl)c3C2)cc1 [compound 3]
972 nM

Likewise for COc1ccccc1CON=C1/C=C/C=C\[C@H]2O[C@H]2C[C@@H](C)OC(=O)c2c(O)cc(O)c(Cl)c2C1 [compound 7] ?
360 nM

Next up: COc1ccc(CON=C2/C=C/C=C\[C@H]3O[C@H]3C[C@@H](C)OC(=O)c3c(O)cc(O)c(Cl)c3C2)cc1 [compound 5]
1350 nM

====

Record form. Attribute: FP signal (raw). Fill in for each entry.
- MEASUREMENT TARGET: Hsp90 in C. albicans (SC5314) lysate (Candida albicans)
- Construct: endogenous in cells; host or cells: C. albicans SC5314 whole-cell lysate
- ASSAY EXPLANATION: biochemical
- Assay type: binding
- CONDITION LABEL: SC5314 lysate, 333.333 nM
Respond with the number and no other words.

I'd like to know its FP signal (raw). The compound in question is CC1CC2OC2C=CC=CC(=NOCCN2CCCC2=O)Cc2c(Cl)c(O)cc(O)c2C(=O)O1 (stereo not drawn) [KF58333, reference compound]
35

For CC1(C)CC(=O)c2c(C(F)(F)F)nn(-c3ccc(C(N)=O)c(N[C@H]4CC[C@H](OC(=O)CN)CC4)c3)c2C1 [SNX-5422] then?
35

Next compound: CC1CC2OC2C=CC=CC(=NOCc2ccccc2)Cc2c(Cl)c(O)cc(O)c2C(=O)O1 (mixture of isomers) [compound 217]
134

Try COC1=C2C[C@@H](C)C[C@H](OC)[C@H](O)[C@@H](C)/C=C(\C)[C@H](OC(N)=O)[C@@H](OC)/C=C\C=C(/C)C(=O)NC(=CC1=O)C2=O [geldanamycin, reference compound] next.
33

Likewise for C[C@@H]1C[C@@H]2O[C@@H]2/C=C\C=C\C(=NOCc2ccccc2Cl)Cc2c(Cl)c(O)cc(O)c2C(=O)O1 [compound 4] ?
145

Note, next up: COc1ccc(CON=C2C=CC=CC3OC3CC(C)OC(=O)c3c(O)cc(O)cc3C2)cc1 (stereo not drawn) [CMLD013075]
146

====

- System: Hsp90 in HEPG2 lysate
- CONDITION LABEL: HEPG2 lysate, log concentration 0.61437 (4.115 nM)
READOUT TYPE: FP signal, Fxn Control
Write no unit; give the number alone.

FP signal, Fxn Control for COc1ccc(CON=C2C=CC=CC3OC3CC(C)OC(=O)c3c(O)cc(O)c(Cl)c3C2)cc1 (mixture of isomers) [compound 224] ?
0.9952

What would you report for CC1CC2OC2C=CC=CC(=NOCc2cccc(F)c2)Cc2c(Cl)c(O)cc(O)c2C(=O)O1 (mixture of isomers) [compound 227] ?
0.9615

Please give the result for CCON=C1/C=C/C=C\[C@H]2O[C@H]2C[C@@H](C)OC(=O)c2c(O)cc(O)c(Cl)c2C1 [compound 333] too.
0.7075

Would you mind doing Cc1ccc(CON=C2C=CC=CC3OC3CC(C)OC(=O)c3c(O)cc(O)c(Cl)c3C2)cc1 (mixture of isomers) [compound 218] as well?
0.9953

Note, next up: CC1(C)CC(=O)c2c(C(F)(F)F)nn(-c3ccc(C(N)=O)c(N[C@H]4CC[C@H](OC(=O)CN)CC4)c3)c2C1 [SNX-5422]
0.9717

Next: CC1CC2OC2C=CC=CC(=NOCCN2CCCC2=O)Cc2c(Cl)c(O)cc(O)c2C(=O)O1 (centres unmarked) [KF58333, reference compound]
0.9307

Repeat with COc1ccccc1CON=C1C=CC=CC2OC2CC(C)OC(=O)c2c(O)cc(O)c(Cl)c2C1 (mixture of isomers) [compound 226]
0.9952

// next record C[C@@H]1C[C@@H]2O[C@@H]2/C=C\C=C\C(=NOCc2ccccc2Cl)Cc2c(Cl)c(O)cc(O)c2C(=O)O1 [compound 4]
1.0198

Please give the result for COc1ccc(CON=C2C=CC=CC3OC3CC(C)OC(=O)c3c(O)cc(O)cc3C2)cc1 (centres unmarked) [CMLD013075] too.
0.9905

Another: CC1CC2OC2C=CC=CC(=NOCc2ccccc2)Cc2c(Cl)c(O)cc(O)c2C(=O)O1 (mixture of isomers) [compound 217]
0.9951

Then what about the compound CCNC(=O)c1noc(-c2cc(C(C)C)c(O)cc2O)c1-c1ccc(CN2CCOCC2)cc1 [AUY922, reference compound] ?
0.7962

====

- MEASUREMENT TARGET: Hsp90 in C. albicans (SC5314) lysate (Candida albicans, UniProt P46598)
- Construct: endogenous in cells; host or cells: C. albicans SC5314 whole-cell lysate
- ASSAY EXPLANATION: biochemical
- Format: binding
- CONDITION LABEL: SC5314 lysate, 4.115 nM compound
READOUT TYPE: FP signal relative to 0 nM
Just the number, please, no unit attached.

I am curious: what FP signal relative to 0 nM value has been reported for CC1CC2OC2C=CC=CC(=NOCc2cccc(F)c2)Cc2c(Cl)c(O)cc(O)c2C(=O)O1 (mixture of isomers) ?
0.9453

Similarly, COc1ccccc1CON=C1C=CC=CC2OC2CC(C)OC(=O)c2c(O)cc(O)c(Cl)c2C1 (mixture of isomers) ?
0.9314

Do the same for "CCON=C1/C=C/C=C\[C@H]2O[C@H]2C[C@@H](C)OC(=O)c2c(O)cc(O)c(Cl)c2C1" please
0.5644

Next compound up: Cc1ccc(CON=C2C=CC=CC3OC3CC(C)OC(=O)c3c(O)cc(O)c(Cl)c3C2)cc1 (mixture of isomers)
0.9709

Can you check COc1ccc(CON=C2C=CC=CC3OC3CC(C)OC(=O)c3c(O)cc(O)c(Cl)c3C2)cc1 (mixture of isomers) next?
1.025

And the next one, COc1ccc(CON=C2C=CC=CC3OC3CC(C)OC(=O)c3c(O)cc(O)cc3C2)cc1 (stereo not drawn) ?
0.966

Ok, now CC1CC2OC2C=CC=CC(=NOCc2ccccc2)Cc2c(Cl)c(O)cc(O)c2C(=O)O1 (mixture of isomers)
0.9474

For CC1CC2OC2C=CC=CC(=NOCCN2CCCC2=O)Cc2c(Cl)c(O)cc(O)c2C(=O)O1 (stereo not drawn) [KF58333, reference compound] then?
0.7826

Same for "C[C@@H]1C[C@@H]2O[C@@H]2/C=C\C=C\C(=NOCc2ccccc2Cl)Cc2c(Cl)c(O)cc(O)c2C(=O)O1"
0.9952

====

- Tested on: Hsp90 in HEPG2 lysate
- CONDITION LABEL: HepG2 lysate, 0.457 nM
Kindly supply the reported FP signal (raw) values for the records listed here.
Could you keep your reply to the number by itself?

What value of FP signal (raw) has been recorded for this entry: CC1CC2OC2C=CC=CC(=NOCc2ccccc2)Cc2c(Cl)c(O)cc(O)c2C(=O)O1 (mixture of isomers)
207

Please give the result for COc1ccccc1CON=C1C=CC=CC2OC2CC(C)OC(=O)c2c(O)cc(O)c(Cl)c2C1 (mixture of isomers) too.
203

Okay, and "CC1(C)CC(=O)c2c(C(F)(F)F)nn(-c3ccc(C(N)=O)c(N[C@H]4CC[C@H](OC(=O)CN)CC4)c3)c2C1" ?
209

Quick one: "CCON=C1/C=C/C=C\[C@H]2O[C@H]2C[C@@H](C)OC(=O)c2c(O)cc(O)c(Cl)c2C1"
203

Now the compound CC1CC2OC2C=CC=CC(=NOCCN2CCCC2=O)Cc2c(Cl)c(O)cc(O)c2C(=O)O1 (stereo not drawn) [KF58333, reference compound]
196

Similarly, "C[C@@H]1C[C@@H]2O[C@@H]2/C=C\C=C\C(=NOCc2ccccc2Cl)Cc2c(Cl)c(O)cc(O)c2C(=O)O1" ?
204

What would you report for CC1CC2OC2C=CC=CC(=NOCc2cccc(F)c2)Cc2c(Cl)c(O)cc(O)c2C(=O)O1 (mixture of isomers) ?
203

Now consider CC1(C)CC(=O)c2c(C(F)(F)F)nn(-c3ccc(C(N)=O)c(N[C@H]4CC[C@H](O)CC4)c3)c2C1 [SNX-2112, reference compound] .
211

Same question for CCNC(=O)c1noc(-c2cc(C(C)C)c(O)cc2O)c1-c1ccc(CN2CCOCC2)cc1 [AUY922, reference compound] please.
206

Further, for COc1ccc(CON=C2C=CC=CC3OC3CC(C)OC(=O)c3c(O)cc(O)cc3C2)cc1 (stereo not drawn) ?
207

Item: COc1ccc(CON=C2C=CC=CC3OC3CC(C)OC(=O)c3c(O)cc(O)c(Cl)c3C2)cc1 (mixture of isomers)
206

Consider next the compound Cc1ccc(CON=C2C=CC=CC3OC3CC(C)OC(=O)c3c(O)cc(O)c(Cl)c3C2)cc1 (mixture of isomers) in the same way.
210
